Where these numbers come from: ChEMBL document CHEMBL3352799

- measurementNotes: Selectivity index, ratio of CC50 for human MT4 cells to EC50 for HIV1 3B infected in human MT4 cells
- Type: toxicity, cell-based
- testParameters: read-out: Ratio CC50/EC50
Please respond with reported selectivity ratio for every item in the list.
No unit in the answer, only the number.

Sample CCOC(=O)c1ccc(NC(=O)CSc2ncncc2-c2cccc3ccccc23)c(Br)c1 ; selectivity ratio observed: 47

Sample O=C(CSc1ncncc1-c1cccc2ccccc12)Nc1ccc(C(=O)O)cc1Cl ; selectivity ratio observed: 13

Sample CCOC(=O)C(C)NC(=O)c1ccc(NC(=O)CSc2ncncc2-c2cccc3ccccc23)c(Cl)c1 (centres undefined) ; selectivity ratio observed: 13

Sample NS(=O)(=O)c1ccc(NC(=O)CSc2nncnc2-c2cccc3ccccc23)c(Br)c1 ; selectivity ratio observed: 1290

Sample O=C(CSc1nnccc1-c1cccc2ccccc12)Nc1ccccc1[N+](=O)[O-] ; selectivity ratio observed: 2150
